# run-description: M. tuberculosis growth inhibition, HTS (AID 449762);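 also: bacterial growth assessed after seven days of incubation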
# condition-context: M. tuberculosis H37Rv growth inhibition, 7H9 media; at 25 µM; hits give high values
Among all 330,000 compounds or so, about 1,900 (0.58%) were called active. About 4% were inconclusive and are not listed. These entries were drawn from the full list. Entries with a potency or affinity are not part of this list.
Reported inhibition values for the following compounds.

compound: O=C(NC1CCSc2ccccc21)c1ccccc1F (stereo unspecified)
measurement-type: inhibition
result: 12.7% (inactive)

Query: Item Cc1cc(C(=O)NNC(=O)c2sccc2C)c(C)o1 has what recorded inhibition?
Response: -4.39% (inactive)

Query: Item CCc1nnc(N/N=C/c2cc(Br)c(O)cc2O)n1N has what recorded inhibition?
Response: 0.32% (inactive)

Query: Item O=C(Cn1ccc([N+](=O)[O-])n1)NCc1cccnc1 has what recorded inhibition?
Response: 4.03% (inactive)

Query: Item Cc1cccc(C(=O)NCCc2csc(C)n2)c1 has what recorded inhibition?
Response: -0.44% (inactive)

Query: Item O=C(Nc1ccccc1F)Nc1ccccc1Br has what recorded inhibition?
Response: 4.25% (inactive)

Query: Item O=C(c1ccc(C(=O)N2CCN(c3ccccc3F)CC2)nc1)N1CCN(c2ccccc2F)CC1 has what recorded inhibition?
Response: -7.27% (inactive)

Query: Item N#Cc1cc(Nc2c(N)nc[nH]c2=O)c([N+](=O)[O-])cc1C#N has what recorded inhibition?
Response: -9.11% (inactive)

Query: Item COc1ccc(/C=N/NC(=O)c2nonc2C)cc1 has what recorded inhibition?
Response: 5.08% (inactive)

Query: Item CCN(C(=O)COC(=O)c1[nH]c(C)c(C(C)=O)c1C)C1CCS(=O)(=O)C1 (stereo unspecified) has what recorded inhibition?
Response: -10.7% (inactive)

Query: Item C=CCn1c(O)c(C(C)=Nc2cccc(C(=O)O)c2)c(=O)[nH]c1=O has what recorded inhibition?
Response: -1.56% (inactive)
